target: SARS-CoV-2 receptor binding domain (RBD), wild type (SARS-CoV-2, UniProt P0DTC2 319-539); assay: ELISA, RBD protein coated, mAb titrated
ATTRIBUTE MEASURED: log10 EC50 (log10 of the value in ng/mL)
Heads up: the numbers are on a log10 scale; they represent EC50 in ng/mL.

Give the measured log10 EC50 for C057 (antibody, V domains shown) VH: QVQLVQSGAEVKRPGASVKLSCKASGYIFTDYSIHWVRQAPGQGLEWMGWVNPNSGGGNSAQKFMDWVTMARDTSITTVYMELSRLRSDDTAVYYCARGPLFHKLVYDSWSGYHDGFDIWGQGTMVTVSS VL: QSALTQPASVSGSPGQSITISCTGTSSDVGAYKFVSWYQQHPGKAPQLIIYEVSNRPSGVSNRFSGSKSGNTASLTISGLQAEDEADYYCSSYTNASTWVFGGGTELTVL
0.36

Give the measured log10 EC50 for C062 (antibody, V domains shown) VH: EVQLVESGGGLVKPGGSLRLTCAASGFTFSTYSMNWVRQAPGKGLEWVSSISSSSSYIYYADSVKGRFTISRDNAKNSLYLQMNSLRAEDTAVYYCARERGYYGGKTPPFLGGQGTLVTVSS VL: NFMLTQPHSVSESPGKTVTISCTGSSGSIASNYVQWYQQRPGSAPTTVIYEDNQRPSGVPDRFSGSIDSSSNSASLTISGLKTEDEADYYCQSYDSSNYWVFGGGTKLTVL
0.67

Give the measured log10 EC50 for C090 (antibody, V domains shown) VH: QVQLVESGGGVVQPGRSLRLSCAASGFTFRTYAMHWVRQAPGKGLEWVAVILSDGNNKYYADSVKGRFTISRDNSKNTLYLQMNSLRAEDTAIFYCAREQEANYYDISGYYHWGESLGYWGQGTLVTVSS VL: DIQLTQSPSFLSASVGDRVTITCRASQGISSYLAWYQQKPGKAPKFLIYGASTLQSGVPSRFSGSGSGTEFTLTISSLQPEDFASYYCQKVNSYPPGLTFGGGTKVEIK
0.79

Give the measured log10 EC50 for C086 (antibody, V domains shown) VH: QVQLQESGPGLVKPSETLSLTCTVSGDSISTYFWAWIRQPPGRGLECIGSFFPSGSTYYNPSLKSRVTISVDTSKNQFSLKLNSVTAADTAVYYCARLKQQLVGFGWFDPWGQGSLVTVSS VL: QSVLTQPPSVSGAPGQRVTISCTGSISNIGADYEVHWYVQFPGTAPKVLIYANTNRPSGVPERFSASKSGTSASLAITGLQAEDEADYYCQSYDHRLHWVFGGGTKLTVL
0.48

Give the measured log10 EC50 for C068 (antibody, V domains shown) VH: QVQLVESGGGVVQPGRSLRLSCVASGFSFSTYGMHWVRQAPGKGLEWVALIWSDGSNKYYGDAAEGRFTISRDNSNNTLYLQMNNLRAEDTALYYCARDHSSSSFVYYYYMDVWGKGTTVTVSS VL: QSALTQPRSVSGSPGQSVTISCTGTSSDIGGYNYVSWYQQHPDKAPKFIIFDVSKRPSGVPDRFSGSKSGNTASLTISGLQAEDEADYYCCSYAGPYPYVFGTGTKVTVL
0.74

Give the measured log10 EC50 for C063 (antibody, V domains shown) VH: EVQLVQSGAEVKKPGDSLKISCKASGYSFTRYWIGWVRQMPGKGLDWMGIIYPGDSDTRYSSSFQGQVTISADKSISTAYLQWSSLKASDTSLYYCVRRASSTNFEFWGQGTLVTVSS VL: SYELTQPPSVSVAPGQTATITCGGNNIGSKTVHWYQQKPGQAPVVVVYDDSDRPSGIPERFSGSKSGSTATLTITRVEAGDEADYYCQVWDSTSDHYVFGTGTKVAVI
2.62

Give the measured log10 EC50 for C088 (antibody, V domains shown) VH: QVQLVQSGAEAKKPGASVKVSCKTSGYTFTNYFMHWVRQAPGQGPEWMGIIDSSDGGASYAQKFQGRVTMTRDTSTSTVYMELRSLKFEDTAVYYCARASTSTTSWSDALSLGSWGQGTLVTVSS VL: QSVLTQPPSVSGAPGQRVTISCTGSSSNIGGGSVVHWYQQLPGTAPKLLIYANSNRPSGVPDRFSGSKSGTSASLAIAGLQAEDEADYYCQSWDNGLSASGVVFGGGTKLTVL
0.39

Give the measured log10 EC50 for C521 (antibody, V domains shown) VH: EVQLVESGGGLVRPGGSLTLSCVASGFTVGSNFMSWVRQAPGKGLEWVSLIYNSGGTHYADSVKGRFTISRDRSKNTLYLQMNSLRAEDTAIYYCANHGYYYYMDVWGKGTTVTVS VL: QSALTQPASVSGSPGQSITISCTGTGSDIGAYNYVSWHQHHPGKAPKLIIYDVSNRPSGVSNRFSGSKSGNTASLTISGLQAEDEADYYCTSYTNTTTPWVFGGGTKVTVL
0.84
